// values below are reported melting point

Cc1cc(C)n(C(=O)c2cn3c(C)csc3n2)n1 = 172 to 176 °C
CCCCC#CCCOc1c(I)cc(I)cc1I = 45 to 49 °C

Q. Reported melting point, molecule C#Cc1c(C#N)nn(-c2c(Cl)cc(OC(F)(F)F)cc2Cl)c1N : ____
A. 176 °C

Q. Returns the measured melting point for the input molecule. Input: CCCOc1ccccc1CCCOc1ccc2c(c1)C=C(C(=O)O)CCS2(=O)=O
A. 153 to 157 °C

Q. Name the reported melting point value associated with the molecule O=C(NC(=O)c1c(Cl)cccc1Cl)Nc1ccc(C(F)(F)F)cc1
A. 200 °C
